test system: COLO 205 colon; experiment: NCI-60 one-dose screen, 48 h; conditions: 10 µM unless noted
The panel holds about 83,000 compounds, 20% with a hit somewhere; the sample as a whole holds those more often. Calls of active or inactive are those of the source. Rule for the calls: active = growth percent below 10; inactive = the rest.
Outcomes: T = active, F = inactive

structure-smiles-string | group-label
N#C/C(C(=O)c1ccccc1)=C1/C(=O)Nc2ccc(Br)cc21 | F
COC(=O)[C@]12CCC(C)(C)C[C@H]1C1=CC[C@@H]3[C@@]4(C)C/C(=C/c5cccnc5)C(=O)C(C)(C)[C@@H]4CC[C@@]3(C)[C@]1(C)CC2 | T
O=C(OCc1ccc2c(Cl)cc(Cl)c(O)c2n1)N1CCN(C(=O)c2cc3cc(F)ccc3[nH]2)CC1 | F
